# System: cynomolgus monkey (cyno) TIGIT protein (cynomolgus monkey, UniProt A0A7N9I9V4 89-209)
# Sequence (A0A7N9I9V4 entry or part of it): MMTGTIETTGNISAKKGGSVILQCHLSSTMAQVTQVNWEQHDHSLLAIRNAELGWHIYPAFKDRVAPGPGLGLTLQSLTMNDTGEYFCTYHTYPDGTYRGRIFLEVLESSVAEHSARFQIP
# Experiment Summary: SPR, monovalent affinity
Measured Kd values are reported for all entries that follow.
Numeric only. Scale: nM

Binder	Readout Unit	Observed Value
h15C8.L1H1 (antibody, V domains shown, First humanized version; FR/HVR pieces in order; also called h1.15C8.L1H1) VH: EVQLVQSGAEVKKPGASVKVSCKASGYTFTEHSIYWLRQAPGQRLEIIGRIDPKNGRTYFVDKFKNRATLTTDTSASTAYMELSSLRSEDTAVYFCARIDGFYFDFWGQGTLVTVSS VL: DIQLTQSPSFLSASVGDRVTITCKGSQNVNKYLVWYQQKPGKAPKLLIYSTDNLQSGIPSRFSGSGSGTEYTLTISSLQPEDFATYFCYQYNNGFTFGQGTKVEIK	nM	1.39
7.4A3.Q1E.C96 (antibody, V domains shown, built from its name as 7.4A3 with Q1E in VH and C96 kept in VL) VH: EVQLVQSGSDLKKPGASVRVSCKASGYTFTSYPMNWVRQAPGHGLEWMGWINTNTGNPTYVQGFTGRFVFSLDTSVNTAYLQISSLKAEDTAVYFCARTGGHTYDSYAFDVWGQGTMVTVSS VL: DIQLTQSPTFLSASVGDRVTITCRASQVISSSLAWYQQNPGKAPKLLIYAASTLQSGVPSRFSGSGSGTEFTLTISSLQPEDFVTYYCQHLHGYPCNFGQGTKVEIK	nM	2.09

Please find the next binder below.
Q. What does the data say about its Kd? Entry: 7.4A3 (antibody, V domains shown, OMT rat-derived human antibody; also called 7.4A3.Q1.C96) VH: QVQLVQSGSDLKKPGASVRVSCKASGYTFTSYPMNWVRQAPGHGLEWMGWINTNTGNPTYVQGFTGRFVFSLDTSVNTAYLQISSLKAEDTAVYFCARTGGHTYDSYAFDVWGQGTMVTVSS VL: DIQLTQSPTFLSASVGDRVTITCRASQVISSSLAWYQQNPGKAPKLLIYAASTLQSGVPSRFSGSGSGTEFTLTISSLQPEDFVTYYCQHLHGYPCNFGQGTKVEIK
A. 1.6

Ref: patent US20220064286A1
